- assayText: Pharmacokinetic study of Example 1 in mouse (IV, IP, PO)
- Assay type: in vivo, Male C57BL/6 Mouse
- testConditions: male, C57BL/6, mouse, plasma, po, 30 mg/kg, PO 30 mg/kg; mean; read-out: Tmax
metricName: Tmax (min)
Reply numerically in min, unit not repeated.

Query: Report Tmax for Cc1ccc(Nc2nc(N/N=C/c3c[nH]c4ccccc34)nc(N3CCOCC3)n2)cc1 [Example 1] please.
Result: 30

###

- assayText: Pharmacokinetic study of Example 1 in mouse (IV, IP, PO)
- Assay type: in vivo, Male C57BL/6 Mouse
- testConditions: male, C57BL/6, mouse, plasma, ip, 30 mg/kg, IP 30 mg/kg; 6.00 h; mean
metricName: concentration at 6 h (ng/mL)
Reply numerically in ng/mL, unit not repeated.

Query: Report concentration at 6 h for Cc1ccc(Nc2nc(N/N=C/c3c[nH]c4ccccc34)nc(N3CCOCC3)n2)cc1 [Example 1] please.
Result: 105

###

- assayText: Pharmacokinetic study of Example 1 in mouse (IV, IP, PO)
- Assay type: in vivo, Male C57BL/6 Mouse
- testConditions: male, C57BL/6, mouse, plasma, iv, 5 mg/kg, IV 5 mg/kg; mean; read-out: MRT0-inf
metricName: MRT inf (min)
Reply numerically in min, unit not repeated.

Query: Report MRT inf for Cc1ccc(Nc2nc(N/N=C/c3c[nH]c4ccccc34)nc(N3CCOCC3)n2)cc1 [Example 1] please.
Result: 53.9

###

- assayText: Pharmacokinetic study of Example 3 in mouse (IV, IP)
- Type: in vivo, C57 Mouse
- testConditions: C57, mouse, plasma, ip, 30 mg/kg, IP injection, single 30 mg/kg dose; read-out: half life (converted)
metricName: half-life

Query: Report half-life for Cc1ccc(Nc2nc(N/N=C/c3c[nH]c4ccccc34)cc(N3CCOCC3)n2)cc1 [Example 3] please.
Result: ~5.5 h

###

- assayText: Pharmacokinetic study of Example 1 in mouse (IV, IP, PO)
- Assay type: in vivo, Male C57BL/6 Mouse
- testConditions: male, C57BL/6, mouse, plasma, iv, 5 mg/kg, IV 5 mg/kg; 0.250 h; individual mice M1-M3
metricName: concentration at 0.25 h (ng/mL)
Reply numerically in ng/mL, unit not repeated.

Query: Report concentration at 0.25 h for "Cc1ccc(Nc2nc(N/N=C/c3c[nH]c4ccccc34)nc(N3CCOCC3)n2)cc1" please.
Result: 1140

###

- Test system: U251
- assayText: U251 Vacuolization Assay (24h)
- Type: cell-based
- testConditions: Homo sapiens, U-251
pEC50: −log10 of the molar value.
metricName: pEC50

1) Clc1ccc(Nc2nc(N/N=C/c3c[nH]c4ccccc34)nc(N3CCOCC3)n2)cc1	≥ 6.00

Query: Report pEC50 for "Cc1ccc(Nc2nc(N/N=C/c3c[nH]c4ccccc34)nc(N3CCOc4ccccc43)n2)cc1" please.
Result: < 4.30

Query: What would you report for "COc1ccc(Nc2nc(N/N=C/c3c[nH]c4ccccc34)nc(N3CCOCC3)n2)cc1" ?
Result: ≥ 6.00

Query: What would you report for "Cc1ccc(Nc2nc(N/N=C/c3c[nH]c4ccccc34)nc(N3CCSCC3)n2)cc1" ?
Result: < 4.30

Query: What would you report for "Cc1ccc(Nc2nc(N/N=C/c3c[nH]c4ccccc34)nc(N(CCO)CCO)n2)cc1" ?
Result: < 4.30
